System: rat glial tumor (C6)
Assay: MTT cell viability assay, C6
Assay type: cell-based
Settings: 24 h incubation, max 100 µM, mean ± SD
property measured: IC50 (µM)

molecule	output unit	numeric value
N.N.[Cl][Pt][Cl] [Cisplatin, reference compound]	µM	39.4

###

System: rat glial tumor (C6)
Assay: MTT cell viability assay, C6
Format: cell-based
Conditions: Rattus norvegicus, 24 h incubation, max 100 µM, mean ± SD
pIC50: −log10 of the molar value.
Examples of compounds with documented pIC50 follow.

compound	pIC50
N#Cc1ccc2[nH]c(-c3ccc(C(=O)NN=Cc4ccc([N+](=O)[O-])o4)cc3)nc2c1 [Compound 3c]	< 4.00
Cc1ccc(C=NNC(=O)c2ccc(-c3nc4cc(C#N)ccc4[nH]3)cc2)o1 [Compound 3b]	< 4.00
Cc1ccsc1C=NNC(=O)c1ccc(-c2nc3cc(C#N)ccc3[nH]2)cc1 [Compound 3d]	4.69
N#Cc1ccc2[nH]c(-c3ccc(C(=O)NN=Cc4cccnc4)cc3)nc2c1 [Compound 3h]	< 4.00
N#Cc1ccc2[nH]c(-c3ccc(C(=O)NN=Cc4cccs4)cc3)nc2c1 [Compound 3g]	< 4.00
N#Cc1ccc2[nH]c(-c3ccc(C(=O)NN=Cc4ccco4)cc3)nc2c1 [Compound 3a]	4.00
N#Cc1ccc2[nH]c(-c3ccc(C(=O)NN=Cc4ccncc4)cc3)nc2c1 [Compound 3e]	< 4.00
Cc1ccc(C=NNC(=O)c2ccc(-c3nc4cc(C#N)ccc4[nH]3)cc2)s1 [Compound 3j]	< 4.00
N#Cc1ccc2[nH]c(-c3ccc(C(=O)NN=Cc4ccc([N+](=O)[O-])s4)cc3)nc2c1 [Compound 3i]	< 4.00

###

Test system: CA IX enzyme
Test: Carbonic anhydrase IX inhibition assay (ELISA kit, CA IX protein level)
Type: biochemical, human
Conditions: ELISA kit; Control 250,225; lower = stronger inhibition; p < 0.001
property measured: Concentration (CA IX protein level, ELISA)

structure as smiles	result
Cc1ccsc1C=NNC(=O)c1ccc(-c2nc3cc(C#N)ccc3[nH]2)cc1	83,975 pg/mL
N#Cc1ccc2[nH]c(-c3ccc(C(=O)NN=Cc4ccc([N+](=O)[O-])s4)cc3)nc2c1	92,225 pg/mL
N#Cc1ccc2[nH]c(-c3ccc(C(=O)NN=Cc4cccnc4)cc3)nc2c1	119,425 pg/mL
Cc1ccc(C=NNC(=O)c2ccc(-c3nc4cc(C#N)ccc4[nH]3)cc2)s1	82,745 pg/mL
N#Cc1ccc2[nH]c(-c3ccc(C(=O)NN=Cc4cccs4)cc3)nc2c1	95,745 pg/mL
N#Cc1ccc2[nH]c(-c3ccc(C(=O)NN=Cc4ccncc4)cc3)nc2c1	120,225 pg/mL
N#Cc1ccc2[nH]c(-c3ccc(C(=O)NN=Cc4ccc([N+](=O)[O-])o4)cc3)nc2c1	150,225 pg/mL
Cc1ccc(C=NNC(=O)c2ccc(-c3nc4cc(C#N)ccc4[nH]3)cc2)o1	175,225 pg/mL

###

Test system: CA IX enzyme
Assay: Carbonic anhydrase IX inhibition assay (ELISA kit, CA IX protein level)
Format: biochemical, human
Details: supplement table, same ELISA values

structure as smiles	Concantration hCA IX
Cc1ccc(C=NNC(=O)c2ccc(-c3nc4cc(C#N)ccc4[nH]3)cc2)o1	175,225 pg/ml
N#Cc1ccc2[nH]c(-c3ccc(C(=O)NN=Cc4cccnc4)cc3)nc2c1	119,425 pg/ml
Cc1ccc(C=NNC(=O)c2ccc(-c3nc4cc(C#N)ccc4[nH]3)cc2)s1	82,745 pg/ml
N#Cc1ccc2[nH]c(-c3ccc(C(=O)NN=Cc4ccncc4)cc3)nc2c1	120,225 pg/ml
N#Cc1ccc2[nH]c(-c3ccc(C(=O)NN=Cc4ccc([N+](=O)[O-])o4)cc3)nc2c1	150,225 pg/ml
Cc1ccsc1C=NNC(=O)c1ccc(-c2nc3cc(C#N)ccc3[nH]2)cc1	83,975 pg/ml
N#Cc1ccc2[nH]c(-c3ccc(C(=O)NN=Cc4cccs4)cc3)nc2c1	95,745 pg/ml
N#Cc1ccc2[nH]c(-c3ccc(C(=O)NN=Cc4ccc([N+](=O)[O-])s4)cc3)nc2c1	92,225 pg/ml

# credit: paper PMC11931356
